These measurements were taken from patent US20230303552A1.

Molecular target: human M5 receptors (hM5) (Homo sapiens, UniProt P08912)
Construct: expressed in transfected cells
Sequence (P08912 whole entry): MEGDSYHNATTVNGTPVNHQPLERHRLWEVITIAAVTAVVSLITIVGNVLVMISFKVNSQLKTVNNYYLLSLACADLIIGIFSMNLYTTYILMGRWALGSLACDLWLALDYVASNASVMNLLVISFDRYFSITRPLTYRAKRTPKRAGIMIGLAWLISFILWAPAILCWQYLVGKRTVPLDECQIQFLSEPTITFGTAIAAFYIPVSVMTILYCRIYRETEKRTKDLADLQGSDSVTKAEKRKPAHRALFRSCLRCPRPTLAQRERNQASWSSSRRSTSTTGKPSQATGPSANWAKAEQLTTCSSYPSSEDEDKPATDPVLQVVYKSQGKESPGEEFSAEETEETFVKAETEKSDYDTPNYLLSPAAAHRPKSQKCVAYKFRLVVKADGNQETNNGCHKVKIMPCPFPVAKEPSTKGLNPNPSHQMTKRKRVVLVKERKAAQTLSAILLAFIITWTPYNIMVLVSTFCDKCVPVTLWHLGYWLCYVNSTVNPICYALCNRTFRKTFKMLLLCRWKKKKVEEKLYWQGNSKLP
Assay: Cell-based functional calcium mobilization assay of mAChR M5 activity (inhibition of EC80 acetylcholine response) in CHO cells
Conditions: CHO cells stably expressing hM5; minimum of EC80 acetylcholine response, normalized to maximum acetylcholine response
Measured parameter: EC80 MIN (%)
I only need the number, in %, no unit after it.

Here's what some known entries look like.
Just so you know, measured EC80 MIN for `C[C@@H]1CN(S(=O)(=O)c2ccc3c(c2)CCO3)C[C@@H]1C(=O)Nc1ccc2scnc2c1` came out at 3

Lab note: `O=C(Nc1ccc2[nH]cnc2c1)C1CCN(S(=O)(=O)c2ccc3c(c2)CCO3)CC1` gave EC80 MIN of 22

Looking up `O=C(Nc1cnc2cc[nH]c2c1)C1CCN(S(=O)(=O)c2ccc3c(c2)CCO3)CC1` , I found its EC80 MIN recorded as 79

---
# compound `O=C(Nc1ccc2scnc2c1)C1(F)CCN(S(=O)(=O)c2cccnc2)CC1` ; its EC80 MIN = 4

// EC80 MIN value for `Cc1noc2ncc(S(=O)(=O)N3CCC(C(=O)Nc4ccc5scnc5c4)CC3)cc12` : 60

// recorded EC80 MIN for `O=C(Nc1ccc2scnc2c1)[C@@H]1CCN(S(=O)(=O)c2ccc3c(c2)OCO3)C1` : 3

Documented EC80 MIN of `O=C(Nc1ccc2scnc2c1)C1CCN(S(=O)(=O)c2cccnc2)CC1` : 2

EC80 MIN for C[C@@H]1C[C@@H](C(=O)Nc2ccc3scnc3c2)CCN1S(=O)(=O)c1ccc(Cl)nc1 (racemic) is 3
